Below is a list of entries, each paired with its recorded % Inhibition (primary neuron assay) value.
assayed-system: human α-Synuclein pre-formed fibrils (human, UniProt P37840 1-140)
measurement-protocol: cell-based or functional assay
readout-name: % Inhibition (primary neuron assay) (%)

>>> readout_number("9004 (antibody, IgG2b, V domains shown) VH: EVHLVESGGGLVQPKGSLKLSCAASGFTFNTYAMHWVRQAPGKGLEWVARIRSKSNNYATYYADSVKDRFTISRDDSQSMLYLQMNNLKTEDTAMYYCVRGGLSPFDYWGQGTTLTVSS VL: QIVLTQSPAIMSASPGEKVTMTCSASSSVTYMHWYQQKSGTSPKRWIYDTSKLASGVPARFSGSGSGTSYSLTISSMEAEDAATYYCQQWSSNPPTFGGGTKLEIR")
62.7
>>> readout_number("9110 (antibody, IgG1, V domains shown) VH: EVHLVESGGGLVQPKGSLKLSCAASGFTFNTYAMHWVRQAPGKGLEWVARIRNKSNNYATYYADSVKDRFTISRDDSQSMLFLQMDNLKTEDTAIYYCVRGGLSPFDYWGQGTTLTVSS VL: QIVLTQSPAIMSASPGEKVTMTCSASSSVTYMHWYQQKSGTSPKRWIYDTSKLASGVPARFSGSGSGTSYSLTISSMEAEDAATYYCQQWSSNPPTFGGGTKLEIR")
81.6
